Target: human cyclin E-CDK2 (Homo sapiens)
Assay: FlashPlate kinase assay, cyclin E-CDK2, Rb substrate
Conditions: recombinant cyclin E-CDK2, Rb phosphorylation, 1 μM ATP
We label by threshold. Values of IC50 strictly beneath 1 µM are true. Values of 1 µM and up are false.

Cc1ccc(C(=O)c2sc(Nc3ccc(OC[C@@H]4CCCN4C)cc3)nc2N)cc1F ... false
CCNCCOc1ccc(Nc2nc(N)c(C(=O)c3cccc(CC)c3)s2)cc1 ... false
Cc1cccc(C(=O)c2sc(Nc3ccc(OCCN4CCCC4)cc3)nc2N)c1 ... false
Cc1ccc(C(=O)c2sc(Nc3ccc(OCC(C)(C)N(C)C)cc3)nc2N)cc1F ... false
Nc1nc(Nc2ccc(OCCN3CCCC3)cc2)sc1C(=O)c1cccc(C2CC2)c1 ... false

Exam item: Determine if COc1cccc(C(=O)c2sc(Nc3ccc(OCCN(C)C)cc3)nc2N)c1 shows IC50 strictly lower than 1 µM.
Marked response: false

Exam item: # check: IC50 < 1 µM for CCN1CCC(Oc2ccc(Nc3nc(N)c(C(=O)c4cccc(C5CC5)c4)s3)cc2)C1 (centres unmarked)
Marked response: true

Exam item: Dear colleague, could you confirm whether IC50 of CCNCCOc1ccc(Nc2nc(N)c(C(=O)c3ccc(F)c(CC)c3)s2)cc1 falls below 1 µM? Thanks.
Marked response: false

Exam item: I wonder whether COc1cccc(C(=O)c2sc(Nc3ccc(OCCn4ccnc4)cc3)nc2N)c1 has IC50 below 1 µM. Can you tell?
Marked response: true

Exam item: Please let me know if CCc1cccc(C(=O)c2sc(Nc3ccc(OCC(C)(C)N(C)C)cc3)nc2N)c1 shows IC50 below 1 µM.
Marked response: false

Exam item: State whether 1 µM exceeds IC50 recorded for Nc1nc(Nc2ccc(OCCN3CCCC3)cc2)sc1C(=O)c1cccc(C(F)(F)F)c1 .
Marked response: false

Exam item: Threshold test, IC50 < 1 µM: CCN(CC)CCOc1ccc(Nc2nc(N)c(C(=O)c3cccc(SC)c3)s2)cc1
Marked response: false

Exam item: Just wondering, is IC50 of CCN1CCCC(Oc2ccc(Nc3nc(N)c(C(=O)c4ccc(O)c(F)c4)s3)cc2)C1 (centres unmarked) below 1 µM?
Marked response: false

Exam item: IC50 under 1 µM? Item: CCc1cccc(C(=O)c2sc(Nc3ccc(OCCN(C)C)cc3)nc2N)c1
Marked response: false

Exam item: Hello, I'm reviewing records and need to know if IC50 of CCCc1cc(C(=O)c2sc(Nc3ccc(OC4CCN(CC)C4)cc3)nc2N)ccc1O (centres unmarked) is below 1 µM. Could you check?
Marked response: true

Exam item: Please determine if CN(C)CCOc1ccc(Nc2nc(N)c(C(=O)c3ccc4c(c3)OCO4)s2)cc1 is below 1 µM in terms of IC50.
Marked response: false

Exam item: For CCCc1cc(C(=O)c2sc(Nc3ccc(OC[C@@H](C)N(C)C)cc3)nc2N)ccc1O , is the recorded IC50 below the cut-off of 1 µM?
Marked response: true
